Property: log10(IC50); scope: individual compounds
Target: hERG (Homo sapiens)
Test: in vitro
Settings: herg fluxor ii thallium influx, (-LOG10(IC50), µM)
Please interpret these as log10 of IC50 where IC50 is in µM.

Use the examples below as a reference point.
> print(dat)
                                   compound  observed.value
1  CC(=O)[O-].CC(=O)[O-].[Hg+2] [Mercury(II) acetate]            0.79
2    c1cc[c]([Sb]([c]2ccccc2)[c]2ccccc2)cc1            1.24
3  CCNc1cc2[o+]c3cc(NCC)c(C)cc3c(-c3ccccc3C(=O)OCC)c2cc1C            0.39
4  ClC1=C(Cl)C2(Cl)C3C(Cl)C(Cl)CC3C1(Cl)C2(Cl)Cl (stereo not drawn)            1.45

-- ask // query log10(IC50) value for entry CC1(C)C2(Cl)C(Cl)C(Cl)C(Cl)(C(Cl)Cl)C1(Cl)C2Cl (stereo not drawn)
-- reply 1.61

-- ask // query log10(IC50) value for entry CCCCCCCCCCCC[N+](C)(C)Cc1ccccc1 [Benzyldimethyldodecylammonium chloride]
-- reply 0.08

###

Target: hERG (Homo sapiens)
Test: cell-based
Settings: (-LOG10(IC50), µM)
Property: IC50; scope: individual compounds
Give the number; µM is assumed, so skip it.

Use the examples below as a reference point.
compound	tested_system	scale_unit	IC50
CN1CCc2cc(Cl)c(O)cc2[C@H]2c3ccccc3CC[C@@H]21	hERG (Homo sapiens)	µM	10.3
CCCCCCCCCCCCCCCCn1cc[n+](C)c1	hERG (Homo sapiens)	µM	9.86
CCc1ccc2c(c1)C(=O)c1ccccc1C2=O	hERG (Homo sapiens)	µM	24.5
CC(C)COC(=O)C=Cc1ccccc1 [Isobutyl 3-phenylacrylate]	hERG (Homo sapiens)	µM	50.9
CCN(CC)c1ccc(N)cc1	hERG (Homo sapiens)	µM	35.6

// below: IC50 requested for another compound
-- ask // query IC50 value for entry C/C(=C(/OCCOc1ccc(Cl)cc1)c1ccc(Cl)cc1Cl)n1ccnc1
-- reply 8.17

###

Target: hERG (Homo sapiens)
Assay: cell-based
Settings: (-LOG10(IC50), µM)
Where a name gives a salt, the structure may show the parent alone.
observation_type: IC50 (µM)
Give the number; µM is assumed, so skip it.

Use the examples below as a reference point.
compound	tested_system	IC50 [µM]
Cc1cc(C)c(C(=O)P(=O)(c2ccccc2)c2ccccc2)c(C)c1	hERG (Homo sapiens)	20.3
O=C1C=CC(=O)N1c1cccc(N2C(=O)C=CC2=O)c1 [N,N'-1,3-Phenylenedimaleimide]	hERG (Homo sapiens)	49
CC(C)(C)C(O)(CCc1ccc(Cl)cc1)Cn1cncn1 (stereo not drawn)	hERG (Homo sapiens)	21.9
CN(C)c1ccc(C(=C2C=CC(=[N+](C)C)C=C2)c2ccccc2)cc1 [Malachite green oxalate]	hERG (Homo sapiens)	3.51
CC(C)(C)NC(=O)[C@@H]1C[C@@H]2CCCC[C@@H]2CN1C[C@@H](O)[C@H](Cc1ccccc1)NC(=O)[C@H](CC(N)=O)NC(=O)c1ccc2ccccc2n1 [Saquinavir mesylate]	hERG (Homo sapiens)	22.2

-- ask // query IC50 value for entry CC(C)(C)C1(CCc2ccc(Cl)cc2)CO1 (stereo not drawn)
-- reply 23.2

-- ask // query IC50 value for entry CC(C)C1CCC(Cc2ccc(Cl)cc2)C1(O)Cn1cncn1 (stereo not drawn)
-- reply 34.3

-- ask // query IC50 value for entry CCCCOCCOC(=O)COc1nc(Cl)c(Cl)cc1Cl
-- reply 34.7

-- ask // query IC50 value for entry CCc1nn(CCCN2CCN(c3cccc(Cl)c3)CC2)c(=O)n1CCOc1ccccc1 [Nefazodone hydrochloride]
-- reply 1.57

-- ask // query IC50 value for entry CCC(C)Nc1ccc(NC(C)CC)cc1 (stereo not drawn)
-- reply 12.5

-- ask // query IC50 value for entry CCN(CC)CCN1C(=O)CN=C(c2ccccc2F)c2cc(Cl)ccc21
-- reply 3.79

-- ask // query IC50 value for entry CNCCC(Oc1ccccc1OC)c1ccccc1 (stereo not drawn)
-- reply 9.52

-- ask // query IC50 value for entry CN(C)C(=O)NC1(c2ccccc2)CCN(CC[C@@]2(c3ccc(F)c(F)c3)CN(C(=O)c3ccccc3)CCO2)CC1
-- reply 20.3

-- ask // query IC50 value for entry CN1C2CCC(C)(C)C1CC(OC(=O)C(O)(c1cccs1)c1cccs1)C2 (stereo not drawn)
-- reply 21.3

-- ask // query IC50 value for entry CC(=O)c1ccc2c(c1)N(CCCN1CCC(CCO)CC1)c1ccccc1S2
-- reply 2.39

-- ask // query IC50 value for entry CNC(=O)c1cc(Oc2ccc(NC(=O)Nc3ccc(Cl)c(C(F)(F)F)c3)cc2)ccn1 [Sorafenib tosylate]
-- reply 22.1

-- ask // query IC50 value for entry COc1cc(N)c(Cl)cc1C(=O)NC1CCN(Cc2ccccc2)CC1 [Clebopride maleate]
-- reply 15.7

-- ask // query IC50 value for entry O=C1C(Cl)=C(Cl)C(=O)c2ccccc21
-- reply 21.9

-- ask // query IC50 value for entry O=C(OCCN1CCOCC1)c1cccnc1Nc1cccc(C(F)(F)F)c1 [Morniflumate]
-- reply 10.3

-- ask // query IC50 value for entry CCc1cc(SCc2sc(-c3ccc(C(F)(F)F)cc3)nc2CN2CCN(c3ccc(OC)cc3)CC2)ccc1OCC(=O)O
-- reply 3.34

-- ask // query IC50 value for entry CCOP(=S)(OCC)Oc1ccc([N+](=O)[O-])cc1
-- reply 45.9

-- ask // query IC50 value for entry CCCCCCCCCCCCN1CCOCC1
-- reply 15.5

-- ask // query IC50 value for entry CC[N+](CC)(CC)CCOc1ccc(/C=C/c2ccccc2)cc1 [Stilonium iodide]
-- reply 8.82

-- ask // query IC50 value for entry O=C1c2ccccc2C(=O)N1SC(Cl)(Cl)Cl
-- reply 27.5

-- ask // query IC50 value for entry Cn1c(-c2ccccc2)cc(-c2ccccc2)[n+]1C [Difenzoquat metilsulfate]
-- reply 34.7

-- ask // query IC50 value for entry S=C=NCCc1ccccc1 [Phenethyl isothiocyanate]
-- reply 16.8

-- ask // query IC50 value for entry BrC(Br)C(Br)(Br)Br
-- reply 49.3

-- ask // query IC50 value for entry CCCCN1C(=O)[C@@H]([C@H](O)C2CCCCC2)NC(=O)C12CCN(Cc1ccc(Oc3ccc(C(=O)O)cc3)cc1)CC2 [Aplaviroc hydrochloride]
-- reply 17.4

-- ask // query IC50 value for entry COP(=S)(OC)Oc1cc(Cl)c(I)cc1Cl
-- reply 45.3

-- ask // query IC50 value for entry CC(C)(C)c1cc([N+](=O)[O-])cc(C(C)(C)C)c1O
-- reply 38.9

###

Property: IC50; scope: individual compounds
Target: hERG (Homo sapiens, UniProt Q12809)
Sequence (Q12809 whole entry): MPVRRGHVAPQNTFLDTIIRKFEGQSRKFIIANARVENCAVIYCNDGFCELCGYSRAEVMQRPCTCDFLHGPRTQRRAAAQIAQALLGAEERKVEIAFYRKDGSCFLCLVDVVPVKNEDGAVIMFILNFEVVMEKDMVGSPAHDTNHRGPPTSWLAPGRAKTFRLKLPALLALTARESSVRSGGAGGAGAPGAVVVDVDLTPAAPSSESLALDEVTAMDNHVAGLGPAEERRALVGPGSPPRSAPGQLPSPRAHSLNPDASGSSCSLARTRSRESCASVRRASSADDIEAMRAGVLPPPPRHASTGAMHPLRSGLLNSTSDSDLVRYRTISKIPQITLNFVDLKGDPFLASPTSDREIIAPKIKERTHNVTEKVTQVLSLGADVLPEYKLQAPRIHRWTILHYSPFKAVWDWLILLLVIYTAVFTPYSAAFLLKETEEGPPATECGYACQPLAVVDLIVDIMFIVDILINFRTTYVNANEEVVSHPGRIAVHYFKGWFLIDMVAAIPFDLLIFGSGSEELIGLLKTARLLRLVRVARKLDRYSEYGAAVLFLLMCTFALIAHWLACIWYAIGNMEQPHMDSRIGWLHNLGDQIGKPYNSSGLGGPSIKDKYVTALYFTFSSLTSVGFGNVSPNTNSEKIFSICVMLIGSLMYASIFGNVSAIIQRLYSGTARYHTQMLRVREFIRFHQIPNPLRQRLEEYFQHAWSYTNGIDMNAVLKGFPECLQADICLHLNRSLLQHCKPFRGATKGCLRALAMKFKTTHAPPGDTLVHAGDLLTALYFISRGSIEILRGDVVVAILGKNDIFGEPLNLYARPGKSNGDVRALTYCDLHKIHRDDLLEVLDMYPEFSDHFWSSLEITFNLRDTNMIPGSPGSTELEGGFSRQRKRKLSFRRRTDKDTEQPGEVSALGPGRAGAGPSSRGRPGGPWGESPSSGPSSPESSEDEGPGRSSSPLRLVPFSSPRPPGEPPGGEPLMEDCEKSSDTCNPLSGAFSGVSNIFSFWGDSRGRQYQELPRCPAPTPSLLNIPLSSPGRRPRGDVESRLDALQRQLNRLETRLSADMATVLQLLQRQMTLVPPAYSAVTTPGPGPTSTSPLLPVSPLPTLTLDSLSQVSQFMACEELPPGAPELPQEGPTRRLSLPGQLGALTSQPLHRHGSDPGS
Test: cell-based
Conditions: (-LOG10(IC50), µM)
Counter-ions that a name gives are not always drawn.
Give the number; µM is assumed, so skip it.

Use the examples below as a reference point.
> print(dat)
                                   compound  observation.type  observed.value
1  CC(=O)c1cc2c(cc1C)C(C)(C)C(C)CC2(C)C (centres unmarked) [Tonalide]              IC50            20.3
2  CC(C)Nc1ccc(Nc2ccccc2)cc1 [N-Isopropyl-N'-phenyl-p-phenylenediamine]              IC50            28.5
3  CC(C)=CCN1CC[C@@]2(C)c3cc(O)ccc3C[C@@H]1[C@@H]2C [(-)-Pentazocine succinate]              IC50            22.8
4  CN1CCCC(CC2c3ccccc3Sc3ccccc32)C1 (centres unmarked) [Metixene hydrochloride]              IC50            4.77
5  CCCCCC1Nc2cc(C(F)(F)F)c(S(N)(=O)=O)cc2S(=O)(=O)N1 (centres unmarked) [Penflutizide]              IC50              23

-- ask # value lookup — system hERG (Homo sapiens, UniProt Q12809), readout IC50, item COc1cc(C(=O)OCCCN2CCCN(CCCOC(=O)c3cc(OC)c(OC)c(OC)c3)CC2)cc(OC)c1OC [Dilazep]
-- reply 6.01

-- ask # value lookup — system hERG (Homo sapiens, UniProt Q12809), readout IC50, item CCCCCCCCN(C)CCCCCCCC [N-Methyldioctylamine]
-- reply 3.25

-- ask # value lookup — system hERG (Homo sapiens, UniProt Q12809), readout IC50, item c1ccc(-c2ccc(C(c3ccccc3)n3ccnc3)cc2)cc1 (centres unmarked) [Bifonazole]
-- reply 12.5

-- ask # value lookup — system hERG (Homo sapiens, UniProt Q12809), readout IC50, item CC1(c2ccc(Oc3ccccc3)cc2)OC(=O)N(Nc2ccccc2)C1=O (centres unmarked) [Famoxadone]
-- reply 22.9

-- ask # value lookup — system hERG (Homo sapiens, UniProt Q12809), readout IC50, item Cl[C@H]1[C@H](Cl)[C@@H](Cl)[C@H](Cl)[C@H](Cl)[C@H]1Cl [alpha-1,2,3,4,5,6-Hexachlorocyclohexane]
-- reply 49.4

-- ask # value lookup — system hERG (Homo sapiens, UniProt Q12809), readout IC50, item O=C1CC2(CCCC2)CC(=O)N1CCNCC1COc2ccccc2O1 (centres unmarked) [Binospirone mesylate]
-- reply 19

-- ask # value lookup — system hERG (Homo sapiens, UniProt Q12809), readout IC50, item CCn1c2ccccc2c2cc([N+](=O)[O-])ccc21 [9-Ethyl-3-nitro-9H-carbazole]
-- reply 28.6

-- ask # value lookup — system hERG (Homo sapiens, UniProt Q12809), readout IC50, item CNCCCC1c2ccccc2C=Cc2ccccc21 [Protriptyline hydrochloride]
-- reply 23.9

-- ask # value lookup — system hERG (Homo sapiens, UniProt Q12809), readout IC50, item Cc1nnc2n1-c1sc(CCc3ccc(CC(C)C)cc3)cc1C(c1ccccc1Cl)=NC2C (centres unmarked) [Israpafant]
-- reply 19

-- ask # value lookup — system hERG (Homo sapiens, UniProt Q12809), readout IC50, item O=C1NCN(c2ccccc2)C12CCN(CC1COc3ccccc3O1)CC2 (centres unmarked) [Spiroxatrine]
-- reply 6.24

-- ask # value lookup — system hERG (Homo sapiens, UniProt Q12809), readout IC50, item CCCCCCCCCCCCCC[P+](CCCCCC)(CCCCCC)CCCCCC
-- reply 0.47

-- ask # value lookup — system hERG (Homo sapiens, UniProt Q12809), readout IC50, item CCc1cc(C(C)(C)C)c(O)c(C(C)(C)C)c1 [2,6-Di-tert-butyl-4-ethylphenol]
-- reply 19.5

-- ask # value lookup — system hERG (Homo sapiens, UniProt Q12809), readout IC50, item CC(C)OC(=O)C(O)(c1ccc(Cl)cc1)c1ccc(Cl)cc1 [Chloropropylate]
-- reply 22.7

-- ask # value lookup — system hERG (Homo sapiens, UniProt Q12809), readout IC50, item O=C(CCCN1CCN(c2ccccn2)CC1)c1ccc(F)cc1 [Azaperone]
-- reply 4.77

-- ask # value lookup — system hERG (Homo sapiens, UniProt Q12809), readout IC50, item CN1CCC(N(Cc2ccccc2)c2ccccc2)CC1 [Bamipine]
-- reply 3.94

-- ask # value lookup — system hERG (Homo sapiens, UniProt Q12809), readout IC50, item BrC1CCC(Br)C(Br)CCC(Br)C(Br)CCC1Br (centres unmarked) [1,2,5,6,9,10-Hexabromocyclododecane]
-- reply 19.2

-- ask # value lookup — system hERG (Homo sapiens, UniProt Q12809), readout IC50, item [H]/N=C(\N/C(=N/[H])Nc1ccc(Cl)cc1)NC(C)C [Proguanil hydrochloride]
-- reply 20.1

-- ask # value lookup — system hERG (Homo sapiens, UniProt Q12809), readout IC50, item C/C=C/C=C/CCCCCCCO [8,10-Dodecadien-1-ol]
-- reply 22.7

-- ask # value lookup — system hERG (Homo sapiens, UniProt Q12809), readout IC50, item CCCCCCCCCCn1cc[n+](C)c1 [1-Decyl-3-methylimidazolium chloride]
-- reply 16.7

-- ask # value lookup — system hERG (Homo sapiens, UniProt Q12809), readout IC50, item O=C1c2ccccc2S(=O)(=O)N1CCCCN1CCN(c2ncccn2)CC1 [Ipsapirone]
-- reply 16.9

-- ask # value lookup — system hERG (Homo sapiens, UniProt Q12809), readout IC50, item NC(=O)C1(N2CCCCC2)CCN(CCCN2c3ccccc3CCc3ccc(Cl)cc32)CC1 [Clocapramine]
-- reply 1.45

-- ask # value lookup — system hERG (Homo sapiens, UniProt Q12809), readout IC50, item Clc1ccc(CCC(Cn2ccnc2)Sc2c(Cl)cccc2Cl)cc1 (centres unmarked) [Butoconazole nitrate]
-- reply 5.35
